Measured on: Fuc(a1-2)[Gal(a1-3)]Gal(b1-3)GlcNAc(b1-3)GalNAc
Measurement notes: glycan array binding signal (z-score within array); higher = stronger binding
Condition notes: glycan notation: IUPAC condensed, linker removed
The sample as a whole holds a higher share of the strongest signals than the screen did.
Please go through the items and note down their glycan array binding signal (z-score).
One number for each entry.

Example cases with answers are listed next.
Binder | Result value
AAL (Agrocybe aegerita), Q6WY08 (protein) MQGVNIYNISAGTSVDLAAPVTTGDIVTFFSSALNLNAGAGNPNNTTLNLFAENGAYLLHIAFRLQENVIIFNSRQPDGPWLVEQRVSDVANQFAGIDGKAMVTVFDHGDKYQVVINEKTVIQYTKQISGLTLSLSYNATEETSIFSTVVEAVTYTGLALEHHHHHH | -0.119
XCL (Xerocomus chrysenteron) (protein) MSYSITLRVYQTNRDRGYFSIVEKTVWHFANGGTWSEANGAHTLTQGGSGTSGVLRFLSTKGERITVAVGVHNYKRWCDVVTGLKPDETALVINPQYYNNGGRDYVREKQLAEYSVTSAIGTKVEVVYTVAEGNNLEANVIFS | -0.303

Please find the next binder below.
Query block: Item under review: VLRB.aGPA.23-GCN4-biotin (Petromyzon marinus) (protein) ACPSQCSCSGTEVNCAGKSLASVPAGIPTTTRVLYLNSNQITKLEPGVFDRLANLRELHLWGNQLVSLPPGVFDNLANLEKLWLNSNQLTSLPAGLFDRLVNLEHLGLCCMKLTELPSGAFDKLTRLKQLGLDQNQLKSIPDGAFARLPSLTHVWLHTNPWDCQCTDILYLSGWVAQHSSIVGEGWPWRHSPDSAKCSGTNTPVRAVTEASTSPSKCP . Reported glycan array binding signal (z-score)?
Result block: -0.083
